Could you please report measured growth for the items listed next?
test system: UACC-257 melanoma; test: NCI-60 one-dose screen, 48 h (100 = growth as untreated, 0 = no growth, -100 = all killed); details: 10 µM
This is part of a sample that, as a whole, favours compounds with a hit. Of some 83,000 tested, about 20% had one in any assay.
Numbers only, in %.

CC1(C)N=C(N)N=C(N)N1c1ccc(Cl)cc1: 64
CC1CCC(C(=O)O)N1 (configuration not stated): 103
CCOC(=O)c1[nH]c(C)c(C(C)=O)c1C: 98.3
COc1ccc(C2(O)CCCCC2)cc1: 99.1

For every listed record, write down its growth.
1. CC1C(=O)c2ccccc2CC1C(=O)O (configuration not stated)
2. Cc1ccc(O)c(C(=O)c2ccccc2)c1
3. CN(C)c1nc2c([nH]1)c(=O)n(C)c(=O)n2C
4. O=[N+]([O-])c1ccc(-c2ncc(-c3ccc(Br)cc3)o2)cc1

Response given:
1: 92.8; 2: 96.4; 3: 87.8; 4: 74.1

// batch mode: one growth value per listed entry
1. O=S(=O)(O)c1ccc(Cl)c(Cl)c1
2. Cc1cc(/C=C/c2ccc3cc(N(C)C)ccc3[n+]2C)c(C)n1-c1ccccc1
3. CCC(C#N)(CC)c1ccccc1
4. O=C(/C(=N/O)c1ccccc1)c1ccccc1

Response given:
1: 124; 2: -39.5; 3: 104; 4: 97
